Test: chemical genetic growth profiling, strain panel (AID 1159580);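 further: tested at 20 µM; growth read once vehicle control cultures reached saturation at 30 °C; lower values mean less growth of the strain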
Settings: S. cerevisiae deletion strains, growth OD, locus YKL009W, strain mrt4
The campaign covered roughly 5,500 compounds. About 2,000 (36%) were called active. Another 18% or so got no clear call; they are omitted. No stated cut-off is given here; in the data, active means normalized growth mostly below about 0.91 (no sharp cut-off); inconclusive means no clear call, values can overlap the other calls; inactive means mostly above about 0.92. The list shows a part of the results.
Choose one outcome from this list and give only that: Y (active), N (inactive)

{"columns": ["COMPOUND", "LABEL VALUE"],
 "data": [
  ["C[N+]12CCC(CC1)C(OC(=O)C(O)(c1ccccc1)c1ccccc1)C2 (configuration not stated)", "N"],
  ["CC(=O)NS(=O)(=O)c1ccc(N)cc1", "N"],
  ["O=C(Nc1ccc([N+](=O)[O-])cc1Cl)c1cc(Cl)ccc1O", "Y"],
  ["CNC(=O)Oc1cccc2c1OC(C)(C)C2", "N"],
  ["CC(C)N=C(N)N=C(N)Nc1ccc(Cl)cc1", "N"],
  ["NC(=NCCCCCCN=C(N)N=C(N)Nc1ccc(Cl)cc1)N=C(N)Nc1ccc(Cl)cc1", "Y"]
]}

Then there is this compound:
Name the outcome recorded for Oc1cccc2cccnc12 in the assay.
Y
